Cited source for all entries: the supplement of paper PMC10567573

B1: FBF1 (parent)
chain: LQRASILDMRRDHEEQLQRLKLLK

variants of: B1; experiment: protein stability index of a GFP-peptide fusion (GPS, HEK-293T) (PSI 1-6); higher = more stable; conditions: c terminus: a fixed tail appended;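 also: lentivirally expressed fusions sorted by FACS into six bins by GFP to DsRed ratio, PSI derived from sequencing read proportions per bin multiplied by bin number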
Response key: y means protein stability index >= 3; n means protein stability index < 3.

R19Q | y

Challenge: API: above_or_equal(metric=protein stability index, cutoff=3) for item K24M
Response given: y

Challenge: API: above_or_equal(metric=protein stability index, cutoff=3) for item A4D
Response given: y

Challenge: API: above_or_equal(metric=protein stability index, cutoff=3) for item R3T
Response given: y
